Where do the numbers come from? From ChEMBL document CHEMBL1129461.

- Tgt: UniProtKB P05771
- Sequence (P05771 whole entry): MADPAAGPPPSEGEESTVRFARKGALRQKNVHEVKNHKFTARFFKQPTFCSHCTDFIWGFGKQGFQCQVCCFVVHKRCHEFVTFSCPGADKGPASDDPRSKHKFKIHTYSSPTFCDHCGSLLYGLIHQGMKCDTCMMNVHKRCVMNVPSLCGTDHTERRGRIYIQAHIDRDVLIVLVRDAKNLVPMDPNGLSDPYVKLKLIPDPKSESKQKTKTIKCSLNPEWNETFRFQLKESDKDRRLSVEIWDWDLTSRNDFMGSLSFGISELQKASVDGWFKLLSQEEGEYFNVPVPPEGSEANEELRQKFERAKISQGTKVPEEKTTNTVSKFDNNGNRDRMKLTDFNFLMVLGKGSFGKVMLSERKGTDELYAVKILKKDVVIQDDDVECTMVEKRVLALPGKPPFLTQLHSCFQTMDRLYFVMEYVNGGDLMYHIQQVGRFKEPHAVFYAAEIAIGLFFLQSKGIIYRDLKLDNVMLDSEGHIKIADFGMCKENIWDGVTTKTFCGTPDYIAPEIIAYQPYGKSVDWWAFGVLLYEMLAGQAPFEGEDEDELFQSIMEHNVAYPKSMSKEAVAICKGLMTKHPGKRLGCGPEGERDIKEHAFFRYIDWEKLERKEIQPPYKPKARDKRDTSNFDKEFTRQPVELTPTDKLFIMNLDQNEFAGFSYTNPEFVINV
- Assay details: Evaluated against recombinant human Protein kinase C beta 2
Please go through the items and note down their IC50.
Param answer (str): number followed by unit.

Ask: Return IC50 measured with UniProtKB P05771 given this compound: O=C(OCCCCc1ccc(O)cc1)c1cc(O)c(C(=O)c2c(O)cccc2C(=O)O)c(O)c1
Reply: 0.37 µM

Ask: Return IC50 measured with UniProtKB P05771 given this compound: COC(=O)c1cccc(O)c1C(=O)c1c(O)cc(C(=O)OC2CNCC2Cc2ccc(O)cc2)cc1O (stereo unspecified)
Reply: 0.25 µM

Ask: Return IC50 measured with UniProtKB P05771 given this compound: CS(=O)(=O)NC(COC(=O)c1cc(O)c(C(=O)c2c(O)cccc2C(=O)O)c(O)c1)Cc1ccc(O)cc1 (stereo unspecified)
Reply: 0.43 µM

Ask: Return IC50 measured with UniProtKB P05771 given this compound: O=C(OCC(NS(=O)(=O)c1ccccc1)c1ccc(O)cc1)c1cc(O)c(C(=O)c2c(O)cccc2C(=O)O)c(O)c1 (stereo unspecified)
Reply: 2.8 µM

Ask: Return IC50 measured with UniProtKB P05771 given this compound: COC(=O)c1cccc(O)c1C(=O)c1c(O)cc(C(=O)OCCCc2ccc(O)cc2)cc1O
Reply: 0.75 µM

Ask: Return IC50 measured with UniProtKB P05771 given this compound: Cc1ccc(S(=O)(=O)N2CCC[C@@H](OC(=O)c3cc(O)c(C(=O)c4c(O)cccc4C(=O)O)c(O)c3)[C@H](NC(=O)c3ccc(O)cc3)C2)cc1
Reply: 0.02 µM

Ask: Return IC50 measured with UniProtKB P05771 given this compound: O=C(NC(COC(=O)c1cc(O)c(C(=O)c2c(O)cccc2C(=O)O)c(O)c1)Cc1ccc(O)cc1)c1ccc(O)cc1 (stereo unspecified)
Reply: 3 µM

Ask: Return IC50 measured with UniProtKB P05771 given this compound: CN(C)C(COC(=O)c1cc(O)c(C(=O)c2c(O)cccc2C(=O)O)c(O)c1)Cc1ccc(O)cc1 (stereo unspecified)
Reply: 0.5 µM

Ask: Return IC50 measured with UniProtKB P05771 given this compound: O=C(NC1CNCCCC1OC(=O)c1cc(O)c(C(=O)c2c(O)cccc2C(=O)O)c(O)c1)c1ccc(O)cc1 (racemic)
Reply: 0.03 µM

Ask: Return IC50 measured with UniProtKB P05771 given this compound: O=C(NCCOC(=O)c1cc(O)c(C(=O)c2c(O)cccc2C(=O)O)c(O)c1)c1ccc(O)cc1
Reply: 7.5 µM

Ask: Return IC50 measured with UniProtKB P05771 given this compound: O=C(OCC(Cc1ccc(O)cc1)NS(=O)(=O)c1ccc2ccccc2c1)c1cc(O)c(C(=O)c2c(O)cccc2C(=O)O)c(O)c1 (stereo unspecified)
Reply: 1.8 µM

Ask: Return IC50 measured with UniProtKB P05771 given this compound: O=C(OC1CCCC1Oc1ccc(O)cc1)c1cc(O)c(C(=O)c2c(O)cccc2C(=O)O)c(O)c1 (stereo unspecified)
Reply: 0.02 µM

Ask: Return IC50 measured with UniProtKB P05771 given this compound: O=C(OC[C@@H](Cc1ccc(O)cc1)NS(=O)(=O)c1ccccc1)c1cc(O)c(C(=O)c2c(O)cccc2C(=O)O)c(O)c1
Reply: 0.007 µM

Ask: Return IC50 measured with UniProtKB P05771 given this compound: O=C(OCC(COc1ccc(O)cc1)NS(=O)(=O)c1ccccc1)c1cc(O)c(C(=O)c2c(O)cccc2C(=O)O)c(O)c1 (stereo unspecified)
Reply: 0.83 µM

Ask: Return IC50 measured with UniProtKB P05771 given this compound: O=C(OCC(Cc1ccc(O)cc1)NS(=O)(=O)c1ccccc1)c1cc(O)c(C(=O)c2c(O)cccc2C(=O)O)c(O)c1 (stereo unspecified)
Reply: 0.03 µM

Ask: Return IC50 measured with UniProtKB P05771 given this compound: COC(=O)c1cccc(O)c1C(=O)c1c(O)cc(C(=O)OC[C@@H](Cc2ccc(O)cc2)NS(=O)(=O)c2ccccc2)cc1O
Reply: 0.34 µM
